Please respond with reported pIC50 for every item in the list.
- System: Huh-7 HCV replicon cells (sub-line 5-15; genotype 1b)
- assay_comment: Replicon ELISA cell based assay, genotype 1b (sub-line 5-15)
- Parameters: species or system HCV genotype 1b
- condition_parameters: Hepatitis C virus, Huh-7 genotype 1b replicon sub-line 5-15, 72 hours
- Experimental: Replicon ELISA Cell Based Assay 100 μL of medium containing 10% FCS were added to each well of clear, flat-bottomed 96 well microplates, excepting wells in the top row. […] Following incubation, the assay medium was aspirated from the plates. […] The reaction was stopped by the addition of 25 μL per well of 2 M sulphuric acid and the plates were read at 490 nm on a Fluostar Optima spectrophotometer. […]
pIC50: −log10 of the molar value.

Batch request: pIC50 for each of the following compounds.
1. COC[C@H]1C[C@@](Cn2cccn2)(C(=O)O)N(C(=O)c2ccc(C(C)(C)C)c(OC)c2)[C@H]1c1nccs1 (single isomer, unassigned) [Example 7]
2. COC[C@H]1C[C@@](Cn2cccn2)(C(=O)O)N(C(=O)c2ccc(C(C)(C)C)c(OC)c2)[C@H]1c1ncc(C)s1 (single isomer, unassigned; enantiomer a) [Example 11]
3. COC[C@H]1C[C@@](CC(C)C)(C(=O)O)N(C(=O)c2ccc(C(C)(C)C)c(OC)c2)[C@H]1c1nccs1 [Compound B, reference compound]
4. COC[C@H]1C[C@@](Cc2ccsn2)(C(=O)O)N(C(=O)c2ccc(C(C)(C)C)c(OC)c2)[C@H]1c1nccs1 (racemic) [Example 4]
5. COC[C@H]1C[C@@](Cc2cscn2)(C(=O)O)N(C(=O)c2ccc(C(C)(C)C)c(OC)c2)[C@H]1c1ncc(C)s1 (racemic) [Example 1]
6. COC[C@H]1C[C@@](Cn2cccn2)(C(=O)O)N(C(=O)c2ccc(C(C)(C)C)c(OC)c2)[C@H]1c1nccs1 (racemic) [Example 6]

Result ::
["> 6.82", "> 6.82", "5.00 to 6.82", "> 6.82", "> 6.82", "> 6.82"]

Please state pIC50 for every compound in the list that follows.
1. COC[C@H]1C[C@@](Cc2ccsn2)(C(=O)O)N(C(=O)c2ccc(C(C)(C)C)c(OC)c2)[C@H]1c1nccs1 (single isomer, unassigned; enantiomer a) [Example 5]
2. COCC1CC(CC(C)C)(C(=O)O)N(C(=O)c2ccc(C(C)(C)C)c(OC)c2)C1c1ncc(C)s1 (single isomer, unassigned; enantiomer a) [Compound D, reference compound]
3. COC[C@H]1C[C@@](CC(C)C)(C(=O)O)N(C(=O)c2ccc(C(C)(C)C)c(OC)c2)[C@H]1c1nccs1 (racemic) [Compound A, reference compound]

Result ::
> 6.82
5.00 to 6.82
5.00 to 6.82

// batch mode: one pIC50 value per listed entry
1. COC[C@H]1C[C@@](Cc2cscn2)(C(=O)O)N(C(=O)c2ccc(C(C)(C)C)c(OC)c2)[C@H]1c1nccs1 (racemic) [Example 3]
2. COC[C@H]1C[C@@](Cc2cscn2)(C(=O)O)N(C(=O)c2ccc(C(C)(C)C)c(OC)c2)[C@H]1c1nccs1 (single isomer, unassigned; enantiomer a) [Example 12]
3. COC[C@H]1C[C@@](Cc2nccs2)(C(=O)O)N(C(=O)c2ccc(C(C)(C)C)c(OC)c2)[C@H]1c1ncc(C)s1 (racemic)
4. COC[C@H]1C[C@@](Cn2cccn2)(C(=O)O)N(C(=O)c2ccc(C(C)(C)C)c(OC)c2)[C@H]1c1ncc(C)s1 (racemic) [Example 10]

Result ::
1: > 6.82; 2: > 6.82; 3: 5.00 to 6.82; 4: > 6.82

State recorded pIC50 for all listed compounds.
1. COC[C@H]1C[C@@](Cc2ccccc2)(C(=O)O)N(C(=O)c2ccc(C(C)(C)C)c(OC)c2)[C@H]1c1nccs1 (racemic) [Compound E, reference compound]
2. COC[C@H]1C[C@@](Cc2cscn2)(C(=O)O)N(C(=O)c2ccc(C(C)(C)C)c(OC)c2)[C@H]1c1ncc(C)s1 (single isomer, unassigned; enantiomer a) [Example 2]
3. COC[C@H]1C[C@@](Cc2ccsn2)(C(=O)O)N(C(=O)c2ccc(C(C)(C)C)c(OC)c2)[C@H]1c1ncc(C)s1 (racemic)

Result ::
["5.00 to 6.82", "> 6.82", "> 6.82"]

* * *

Assignment: determine reported IC50 for the given compounds.
- test_system: HCV RNA Polymerase, recombinant full-length NS5B, genotype 1b (Hepatitis C virus genotype 1b, UniProt Q9WMX2)
- Construct: Recombinant full-length NS5B
- Sequence (Q9WMX2 2420-3010): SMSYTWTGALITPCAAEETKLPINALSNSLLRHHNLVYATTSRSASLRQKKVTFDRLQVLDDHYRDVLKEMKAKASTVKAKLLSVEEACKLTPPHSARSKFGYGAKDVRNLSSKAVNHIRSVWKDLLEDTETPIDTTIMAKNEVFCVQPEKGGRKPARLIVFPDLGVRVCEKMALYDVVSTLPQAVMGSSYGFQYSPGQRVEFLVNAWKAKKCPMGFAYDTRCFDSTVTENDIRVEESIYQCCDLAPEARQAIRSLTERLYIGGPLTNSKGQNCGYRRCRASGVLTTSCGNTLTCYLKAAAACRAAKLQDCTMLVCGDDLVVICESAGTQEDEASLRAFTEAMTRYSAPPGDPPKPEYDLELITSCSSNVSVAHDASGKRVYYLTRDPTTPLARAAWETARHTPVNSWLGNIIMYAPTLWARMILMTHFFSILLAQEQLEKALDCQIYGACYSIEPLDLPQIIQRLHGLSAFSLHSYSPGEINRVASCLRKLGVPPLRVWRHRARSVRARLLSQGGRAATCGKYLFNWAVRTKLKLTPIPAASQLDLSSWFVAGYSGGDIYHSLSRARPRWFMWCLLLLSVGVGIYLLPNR
- assay_comment: In vitro HCV RNA-dependent RNA polymerase inhibition assay, genotype 1b full-length enzyme
- condition_parameters: genotype 1b full-length NS5B, 4 nM enzyme

Some solved cases for reference:
- compound: "COC[C@H]1C[C@@](CC(C)C)(C(=O)O)N(C(=O)c2ccc(C(C)(C)C)c(OC)c2)[C@H]1c1nccs1 [Compound B, reference compound]"
  IC50: "200 to 500 nM"
- compound: "COC[C@H]1C[C@@](Cc2nccs2)(C(=O)O)N(C(=O)c2ccc(C(C)(C)C)c(OC)c2)[C@H]1c1ncc(C)s1 (racemic)"
  IC50: "< 200 nM"
- compound: "COC[C@H]1C[C@@](Cn2cccn2)(C(=O)O)N(C(=O)c2ccc(C(C)(C)C)c(OC)c2)[C@H]1c1nccs1 (racemic) [Example 6]"
  IC50: "< 200 nM"
- compound: "COC[C@H]1C[C@@](Cn2cccn2)(C(=O)O)N(C(=O)c2ccc(C(C)(C)C)c(OC)c2)[C@H]1c1ncc(C)s1 (single isomer, unassigned; enantiomer a) [Example 11]"
  IC50: "< 200 nM"
- compound: "COC[C@H]1C[C@@](Cn2cccn2)(C(=O)O)N(C(=O)c2ccc(C(C)(C)C)c(OC)c2)[C@H]1c1nccs1 (single isomer, unassigned) [Example 7]"
  IC50: "< 200 nM"

--- query ---
Query :: Give its IC50 value. Item: COC[C@H]1C[C@@](Cc2ccsn2)(C(=O)O)N(C(=O)c2ccc(C(C)(C)C)c(OC)c2)[C@H]1c1ncc(C)s1 (racemic)
Result :: < 200 nM

* * *

- test_system: HCV RNA Polymerase, recombinant NS5B with C-terminal 21 amino acid deletion, genotype 1a (strain H77) (Hepatitis C virus genotype 1a, UniProt P27958)
- Construct: fused on or other part: C-terminal 6His-tag
- Sequence (P27958 2601-2990 limits assumed, stated change not applied): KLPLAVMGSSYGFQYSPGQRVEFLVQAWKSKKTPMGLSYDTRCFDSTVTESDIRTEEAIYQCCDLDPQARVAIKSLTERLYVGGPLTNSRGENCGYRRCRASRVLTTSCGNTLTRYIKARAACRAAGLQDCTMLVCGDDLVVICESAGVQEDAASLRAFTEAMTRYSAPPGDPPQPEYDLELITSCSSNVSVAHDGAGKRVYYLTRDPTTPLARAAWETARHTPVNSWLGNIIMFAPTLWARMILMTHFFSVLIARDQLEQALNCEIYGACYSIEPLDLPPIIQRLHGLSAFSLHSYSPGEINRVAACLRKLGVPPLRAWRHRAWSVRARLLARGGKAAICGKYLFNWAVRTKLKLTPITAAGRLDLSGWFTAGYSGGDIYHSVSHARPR
- assay_comment: In vitro HCV RNA-dependent RNA polymerase inhibition assay, genotype 1a C-terminally truncated (delta21) enzyme
- condition_parameters: genotype 1a NS5B delta21, 25 nM enzyme; read-out: IC50 in delta-21 1a enzyme inhibition assay
quantity: IC50

Sample records with IC50:
- molecule: "COC[C@H]1C[C@@](Cn2cccn2)(C(=O)O)N(C(=O)c2ccc(C(C)(C)C)c(OC)c2)[C@H]1c1ncc(C)s1 (single isomer, unassigned; enantiomer a) [Example 11]"
  quantity: "IC50"
  result: "< 0.75 µM"
- molecule: "COCC1CC(CC(C)C)(C(=O)O)N(C(=O)c2ccc(C(C)(C)C)c(OC)c2)C1c1ncc(C)s1 (single isomer, unassigned; enantiomer a) [Compound D, reference compound]"
  quantity: "IC50"
  result: "0.75 to 1 µM"
- molecule: "COC[C@H]1C[C@@](Cc2ccsn2)(C(=O)O)N(C(=O)c2ccc(C(C)(C)C)c(OC)c2)[C@H]1c1nccs1 (single isomer, unassigned; enantiomer a) [Example 5]"
  quantity: "IC50"
  result: "< 0.75 µM"

Value sought for every listed molecule: IC50.
1. COC[C@H]1C[C@@](Cc2cscn2)(C(=O)O)N(C(=O)c2ccc(C(C)(C)C)c(OC)c2)[C@H]1c1ncc(C)s1 (single isomer, unassigned; enantiomer a) [Example 2]
2. COC[C@H]1C[C@@](Cc2ccsn2)(C(=O)O)N(C(=O)c2ccc(C(C)(C)C)c(OC)c2)[C@H]1c1nccs1 (racemic) [Example 4]
3. COC[C@H]1C[C@@](Cc2cscn2)(C(=O)O)N(C(=O)c2ccc(C(C)(C)C)c(OC)c2)[C@H]1c1nccs1 (racemic) [Example 3]
4. COC[C@H]1C[C@@](CC(C)C)(C(=O)O)N(C(=O)c2ccc(C(C)(C)C)c(OC)c2)[C@H]1c1ncc(C)s1 (racemic) [Compound C, reference compound]
5. COC[C@H]1C[C@@](Cc2ccccc2)(C(=O)O)N(C(=O)c2ccc(C(C)(C)C)c(OC)c2)[C@H]1c1nccs1 (racemic) [Compound E, reference compound]
6. COC[C@H]1C[C@@](Cc2cscn2)(C(=O)O)N(C(=O)c2ccc(C(C)(C)C)c(OC)c2)[C@H]1c1nccs1 (single isomer, unassigned; enantiomer a) [Example 12]
7. COC[C@H]1C[C@@](Cn2cccn2)(C(=O)O)N(C(=O)c2ccc(C(C)(C)C)c(OC)c2)[C@H]1c1nccs1 (single isomer, unassigned) [Example 7]
8. COC[C@H]1C[C@@](Cc2ccsn2)(C(=O)O)N(C(=O)c2ccc(C(C)(C)C)c(OC)c2)[C@H]1c1ncc(C)s1 (racemic)

Result ::
< 0.75 µM
< 0.75 µM
< 0.75 µM
> 1 µM
> 1 µM
< 0.75 µM
< 0.75 µM
< 0.75 µM

# batch size: 4; output IC50 per entry
1. COC[C@H]1C[C@@](Cc2nccs2)(C(=O)O)N(C(=O)c2ccc(C(C)(C)C)c(OC)c2)[C@H]1c1ncc(C)s1 (racemic)
2. COC[C@H]1C[C@@](Cn2cccn2)(C(=O)O)N(C(=O)c2ccc(C(C)(C)C)c(OC)c2)[C@H]1c1ncc(C)s1 (racemic) [Example 10]
3. COC[C@H]1C[C@@](Cc2cscn2)(C(=O)O)N(C(=O)c2ccc(C(C)(C)C)c(OC)c2)[C@H]1c1ncc(C)s1 (racemic) [Example 1]
4. COC[C@H]1C[C@@](CC(C)C)(C(=O)O)N(C(=O)c2ccc(C(C)(C)C)c(OC)c2)[C@H]1c1nccs1 [Compound B, reference compound]

Result ::
["< 0.75 µM", "< 0.75 µM", "< 0.75 µM", "> 1 µM"]

Hi, could you look up IC50 for each item in my list?
1. COC[C@H]1C[C@@](Cn2cccn2)(C(=O)O)N(C(=O)c2ccc(C(C)(C)C)c(OC)c2)[C@H]1c1nccs1 (racemic) [Example 6]
2. COC[C@H]1C[C@@](CC(C)C)(C(=O)O)N(C(=O)c2ccc(C(C)(C)C)c(OC)c2)[C@H]1c1nccs1 (racemic) [Compound A, reference compound]

Result ::
["< 0.75 µM", "> 1 µM"]

Where these numbers come from: patent US20070270475A1
